- experimental target: LILRA1 (human (not printed on the sheet), UniProt O75019)
- Sequence (O75019 17-461 limits assumed): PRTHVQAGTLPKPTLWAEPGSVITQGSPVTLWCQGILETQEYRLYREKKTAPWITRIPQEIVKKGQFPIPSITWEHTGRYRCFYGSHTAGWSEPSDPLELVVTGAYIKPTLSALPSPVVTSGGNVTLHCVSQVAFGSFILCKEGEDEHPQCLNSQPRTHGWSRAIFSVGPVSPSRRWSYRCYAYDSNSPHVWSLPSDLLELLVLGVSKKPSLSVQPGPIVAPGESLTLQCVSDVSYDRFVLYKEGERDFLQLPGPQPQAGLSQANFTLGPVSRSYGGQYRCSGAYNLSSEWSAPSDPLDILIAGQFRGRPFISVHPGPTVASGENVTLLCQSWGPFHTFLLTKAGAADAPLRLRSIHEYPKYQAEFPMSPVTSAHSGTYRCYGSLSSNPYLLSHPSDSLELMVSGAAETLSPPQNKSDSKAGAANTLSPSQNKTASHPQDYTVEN
- procedure details: LILR reporter cells on coated antibody, GFP positive (%)
readout type: binding result

[[record]]
binder = "h193 antibody No. 37 (h193-H7 / h193-K3) (antibody, V domains shown) VH: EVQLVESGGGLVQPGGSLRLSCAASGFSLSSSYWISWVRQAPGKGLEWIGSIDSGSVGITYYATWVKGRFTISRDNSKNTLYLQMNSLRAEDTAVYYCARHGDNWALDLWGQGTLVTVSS VL: DIQMTQSPSTLSASVGDRVTITCRASQSINSWLAWYQQKPGKAPKLLIYKASTLASGVPSRFSGSGSGTEFTLTISSLQPDDFATYYCQHGYIRGDLDNVFGGGTKVEIK"
readout_type = "binding result"
reported_result = "no binding"

[[record]]
binder = "h193 antibody No. 36 (h193-H7 / h193-K2) (antibody, V domains shown) VH: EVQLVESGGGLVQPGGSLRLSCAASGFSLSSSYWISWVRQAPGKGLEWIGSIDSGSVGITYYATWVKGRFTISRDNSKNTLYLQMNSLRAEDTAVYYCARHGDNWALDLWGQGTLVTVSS VL: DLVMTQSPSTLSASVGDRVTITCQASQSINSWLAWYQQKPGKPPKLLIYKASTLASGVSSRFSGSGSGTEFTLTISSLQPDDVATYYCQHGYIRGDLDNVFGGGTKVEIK"
readout_type = "binding result"
reported_result = "no binding"

[[record]]
binder = "h193 antibody No. 33 (h193-H6 / h193-K3) (antibody, V domains shown) VH: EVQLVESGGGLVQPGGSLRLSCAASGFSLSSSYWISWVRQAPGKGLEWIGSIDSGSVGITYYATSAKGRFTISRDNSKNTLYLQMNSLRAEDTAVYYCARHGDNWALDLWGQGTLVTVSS VL: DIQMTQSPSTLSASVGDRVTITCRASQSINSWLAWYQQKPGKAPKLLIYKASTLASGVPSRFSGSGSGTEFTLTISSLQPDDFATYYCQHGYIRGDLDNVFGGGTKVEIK"
readout_type = "binding result"
reported_result = "no binding"


Provenance of the data: patent US20210371518A1
